The values you see were collected from PubChem BioAssay AID449763.

test: PERK-eIF2a-CHOP pathway stimulators – cell-based, CHO-CHOP luciferase reporter, luminescence, uHTS, primary screen (AID 449763); settings: UPR activation, at 10 µM, percent of tunicamycin response over DMSO baseline;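 also: 100% = tunicamycin at 10 µg/mL and 0% = DMSO alone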
Hit rate of the full screen: of about 330,000 compounds, about 1,100 (0.33%) were called active.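 The calls were made as follows: active = at 10 µM dose, activation of 40% or more, normalized to positive control; inactive = the rest.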 What follows is part of a selection rich in actives, with near analogues and random picks from the rest.
Possible outcomes: active, inactive

| compound | label |
| --- | --- |
| CCC(=O)Nc1sc(C(=O)Nc2ccccc2)c(C)c1C(=O)OC | inactive |
| CCOC(=O)c1sc(NC(=O)CCN2CCOCC2)c(C(=O)OCC)c1C | active |
| CN(C)Cc1c(C#N)c2ccccc2n1C | inactive |
| CCOC(=O)Nc1sc(C(=O)N(C)C)c(C)c1C(=O)OCC | inactive |
| Clc1ccc(CN2CCCCCC2)cc1Cl | inactive |
| Cc1ccc(CN2CCCOCCS2(=O)=O)cc1 | inactive |
| CCOC(=O)c1c(NC(=O)CCl)sc(C(=O)N(CC)CC)c1C | active |
| CCOC(=O)CCc1c(C)c(C#N)c2[nH]c3ccccc3n2c1=O | inactive |
| Cc1cc(C)nc(SCC(=O)N(C)C)n1 | inactive |
| N#CCN(C(=O)COC(=O)C1CC2CCCC(C1)C2=O)c1ccccc1 (stereo not given) | inactive |
| O=C(/C=C/Sc1ncn[nH]1)c1ccc(Cl)cc1 | inactive |
| COc1ccc(N2CC(NS(=O)(=O)c3ccc4ccccc4c3)CC2=O)cc1 (stereo not given) | inactive |
| CCOC(=O)c1c(NC(=O)CCCN2CCOCC2)sc2c1CC(C)(C)OC2 | inactive |
| CCCC(=O)N1c2ccc(-c3csc(N)n3)cc2CC1C (stereo not given) | inactive |
| Cc1cc(C)nc(S/C=C/C(=O)c2ccccc2)n1 | active |

---

assay: PERK-eIF2a-CHOP pathway stimulators – cell-based, CHO-CHOP luciferase reporter, luminescence, uHTS, primary screen (AID 449763); details: UPR activation, at 10 µM, active compounds read high, percent of tunicamycin response over DMSO baseline;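 also: 100% = tunicamycin at 10 µg/mL and 0% = DMSO alone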
Hit rate of the full screen: of about 330,000 compounds, about 1,100 (0.33%) were called active. For the sample, actives were picked, then their nearest neighbours and some compounds at random.

| molecule | activation [%] |
| --- | --- |
| CCCCOc1ccc(N(CC(=O)NCC2CCCO2)C(=O)CCC(=O)Nc2cc(C)ccn2)cc1 (stereo not drawn) | -1.23 |
| COc1ccccc1N1CCN(CC(=O)NCCc2ccc(S(N)(=O)=O)cc2)CC1 | -1.28 |
| Nc1ccccc1SC(C[N+](=O)[O-])c1ccccc1 (stereo not drawn) | 181 |
| Cc1nc2sc3c(c2c(=O)n1NC(=O)CCl)CCCC3 | 1.06 |
| CC1CN(C(=O)c2ccc([N+](=O)[O-])s2)CC(C)O1 (stereo not drawn) | 1.2 |
| Nc1nc(SCC(=O)NN(c2ccccc2)c2ccccc2)n[nH]1 | -0.687 |
| COC(=O)C1CCN(C(=O)COC(=O)c2cc(S(=O)(=O)N3CCOCC3)ccc2C)CC1 | 0.025 |
| O=C(O)C1C2C=CC(C2)C1C(=O)NCc1ccccc1 (stereo not drawn) | -1.58 |
| COc1ccccc1-n1c(SCC(=O)O)nc2sc3c(c2c1=O)CCC3 | 1.38 |
| COc1ccc(CN2C(=O)CN=C2Nc2ccc(C)cc2C)cc1 | 1.91 |
| Cc1ccc(CNC(=O)COC(=O)C2CCC2)cc1 | 0.475 |
| Cc1ccc(C(C[N+](=O)[O-])c2c(C)cc3ccccn23)cc1 (stereo not drawn) | -0.989 |
| CC(C(=O)O)n1cnc2sc3c(c2c1=O)CCCC3 (stereo not drawn) | -0.91 |
| Cc1ccc(-c2ccc(/C=C(\C#N)C(N)=S)o2)c([N+](=O)[O-])c1 | 3.33 |
| C=C(C)CNC(=S)Nc1ccc(S(=O)(=O)Nc2cnc3ccccc3n2)cc1 | -2.1 |
| O=C(CSc1nc(=O)n2ccccc2n1)Nc1ccc2c(c1)OCCO2 | 0.903 |
| CCN(CC(=O)Nc1cccc(S(=O)(=O)N2CCCCC2)c1)Cc1ccccc1 | -0.441 |
| Cc1c(NC(=O)CSc2cccc3cccnc23)c(=O)n(-c2ccccc2)n1C | 163 |
| COc1ccc(C(=O)NC2CC(C)(C)NC(C)(C)C2)cc1OC | 0.193 |
| CCN(C(=O)CSc1nc(N)cc(=O)[nH]1)C1CCS(=O)(=O)C1 (stereo not drawn) | 1.25 |
| Cc1ccc(CCCOC(=O)C[N+]2(C)CCCC2)cc1 | 1.65 |
| O=C(NCCCO)/C(=C\C=C\c1ccccc1)NC(=O)c1ccccc1Cl | 0.299 |
| S=C1SCN(CCN2CCOCC2)CN1Cc1ccccc1 | 129 |

---

assay: PERK-eIF2a-CHOP pathway stimulators – cell-based, CHO-CHOP luciferase reporter, luminescence, uHTS, primary screen (AID 449763); conditions: UPR activation, at 10 µM, active compounds read high, percent of tunicamycin response over DMSO baseline;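 also: 100% = tunicamycin at 10 µg/mL and 0% = DMSO alone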
Hit rate of the full screen: of about 330,000 compounds, about 1,100 (0.33%) were called active. Shown is part of a subset that was picked to be rich in actives.

| compound | activation (%) |
| --- | --- |
| C=CCNc1cnn(-c2ccc(C)cc2)c(=O)c1Cl | 0.179 |
| O=C(NCCCn1ccnc1)C(=O)c1cn(CC(=O)N2CCCCCC2)c2ccccc12 | 1.32 |
| O=C(NCc1ccc(Cl)cc1)c1cc(=O)nc2sc(-c3ccccc3)nn12 | -2.04 |
| COc1ccc(C(=O)NCC2CCCN2S(=O)(=O)c2cccs2)cc1OC (stereo not given) | 11.9 |
| COc1ccc(CCNC(=S)N2CCN(S(=O)(=O)c3ccc(Cl)cc3)CC2)cc1 | 1.93 |
| COc1ccc(-c2cc(-c3ccc(N)cc3)nc(N)c2C#N)cc1OC | -0.472 |
| Cc1ccc(C)c(S(=O)(=O)N2CCN(c3ncnc4sccc34)CC2)c1 | 5.68 |
| CCOc1ccc(N2C(=O)CC(N(CCc3ccc(OC)c(OC)c3)C(=S)Nc3ccccc3)C2=O)cc1 (stereo not given) | 1.65 |
| C=Cn1c(C(=O)O)ccc1-c1ccc(OC)cc1 | -1.21 |
| Cc1cccnc1NC(=O)Cn1c(=O)oc2ccccc21 | -1.26 |
| Cc1ccc(Oc2cnn(-c3ccccc3)c(=O)c2Br)cc1 | 2.08 |
| O=C(O)c1ccc(N/N=C/c2ccc3ncccc3c2)cc1 | -10.5 |
| O=C(NCCc1ccc(Cl)cc1)c1cccc(N2CCCC2=O)c1 | 54.4 |
| O=C(CN1C(=O)c2cccnc2Oc2ccc(Cl)cc21)Nc1ccc(F)cc1 | 1.1 |
| CCCCCC(=O)Nc1ccc(C(=O)N/N=C/c2ccc([N+](=O)[O-])cc2)cc1 | 90.2 |
| COc1ccc(/C=N/N=C2/C(=O)Nc3ccccc32)cc1O | 10.4 |
| CN1CCNC(=O)C1CC(=O)N1CC=C(c2ccc(F)cc2)CC1 (stereo not given) | -1.29 |
| CCCC(c1nnnn1C(C)(C)C)N1CCN(Cc2ccccc2)CC1 (stereo not given) | -1.39 |
| CCOC(=O)c1cnc(Nc2nc3ccccc3o2)nc1CSC(=S)N1CCCCC1 | 152 |
| O=C(CSc1cccc2cccnc12)N/N=C/c1cccnc1 | 227 |
| CC(=O)/C(=N\Nc1ccc(Cl)cc1Cl)Sc1cccc2cccnc12 | 184 |
| CS(=O)(=O)N(Cc1ccccc1)c1ccc(C(=O)NN=C2CCCCCC2)cc1 | 43.7 |
| COCCOC(=O)c1c(C)oc2cc(Br)c(OCC(N)=O)cc12 | 0.018 |
| CCCCCC(=O)NC(=S)NNC(=O)c1ccc([N+](=O)[O-])cc1 | -1.39 |
| C1=C(N2CCOCC2)/C(=C/c2nc3ccccc3[nH]2)CC1 | -3.2 |
| Oc1cc2c(cc1O)CN(C(=S)NCCc1ccc(Cl)cc1)CCC2 | 58.3 |
| CCc1nnc(NC(=O)CSc2nnnn2-c2cccc(C(C)=O)c2)s1 | -1.47 |
| O=C(N/N=C/c1ccc(O)c(O)c1)C1c2ccccc2Oc2ccccc21 | 3.18 |
| Cc1ccccc1CN(c1ccc(C(=O)NCC2CCCO2)cc1)S(C)(=O)=O (stereo not given) | -1.43 |
| Cc1cc(C)n(-c2ccc(NC(=O)C3CCCCN3C(=O)c3cccs3)cc2)n1 (stereo not given) | -0.0869 |
| COc1ccccc1C(=O)NCc1nnc(SC(C)C(=O)Nc2nccs2)n1C (stereo not given) | -1.66 |
| CCOC(=O)CCNC(=O)N1CCCC(C(=O)c2ccccc2SC)C1 (stereo not given) | 1.02 |
| O=C(NNc1cc(Cl)ccc1Cl)c1cccnc1Cl | 0.393 |
| COc1cccc(CNC(=O)c2cccnc2Sc2ccc(Cl)cc2)c1 | 0.384 |
| O=C1Nc2cc(Cl)c(Cl)cc2N(O)N1c1ccccc1Cl | 0.176 |
| C=CS(=O)c1sc(Cl)c(N2CCOCC2)c1[N+](=O)[O-] (stereo not given) | 97.2 |
| Cc1ccc(C2NC(=S)NC3=C2N2CCC3CC2)cc1 (stereo not given) | -2.03 |
| COc1ccc(-c2ccc(Nc3ccc(S(=O)(=O)N4CCCC4)cc3)nn2)cc1OC | 3.88 |
| CCCC(=O)Nc1ccc(C(=O)N/N=C/c2ccc[nH]2)cc1 | -0.0357 |
| COc1ccc(-c2cc(C(F)(F)F)nc(S(C)(=O)=O)n2)cc1OC | 106 |
| CCOC(=O)c1ccc(NC(=O)c2nc[nH]c2C(=O)N[C@@H](CCCCNC(=O)OC(C)(C)C)C(=O)OC(C)(C)C)cc1 | 2.33 |
| CC1CCCCC1NC(=O)CSc1nnc(-c2ccncc2)n1CCCN(C)C (stereo not given) | -1.77 |
| Cc1ccc(NC(=S)NCCc2ccc(Cl)cc2)c(C)c1 | 1.96 |
| CCOc1ccc(N2C(=O)CC(N(O)c3ccccc3)C2=O)cc1 (stereo not given) | 185 |
| CC1CCCC(NC(=O)c2cccc(N3CCCC3=O)c2)C1C (stereo not given) | 3.2 |
